# targetSystem: human Cav2.2 (Homo sapiens)
# Sequence (Q00975 whole entry): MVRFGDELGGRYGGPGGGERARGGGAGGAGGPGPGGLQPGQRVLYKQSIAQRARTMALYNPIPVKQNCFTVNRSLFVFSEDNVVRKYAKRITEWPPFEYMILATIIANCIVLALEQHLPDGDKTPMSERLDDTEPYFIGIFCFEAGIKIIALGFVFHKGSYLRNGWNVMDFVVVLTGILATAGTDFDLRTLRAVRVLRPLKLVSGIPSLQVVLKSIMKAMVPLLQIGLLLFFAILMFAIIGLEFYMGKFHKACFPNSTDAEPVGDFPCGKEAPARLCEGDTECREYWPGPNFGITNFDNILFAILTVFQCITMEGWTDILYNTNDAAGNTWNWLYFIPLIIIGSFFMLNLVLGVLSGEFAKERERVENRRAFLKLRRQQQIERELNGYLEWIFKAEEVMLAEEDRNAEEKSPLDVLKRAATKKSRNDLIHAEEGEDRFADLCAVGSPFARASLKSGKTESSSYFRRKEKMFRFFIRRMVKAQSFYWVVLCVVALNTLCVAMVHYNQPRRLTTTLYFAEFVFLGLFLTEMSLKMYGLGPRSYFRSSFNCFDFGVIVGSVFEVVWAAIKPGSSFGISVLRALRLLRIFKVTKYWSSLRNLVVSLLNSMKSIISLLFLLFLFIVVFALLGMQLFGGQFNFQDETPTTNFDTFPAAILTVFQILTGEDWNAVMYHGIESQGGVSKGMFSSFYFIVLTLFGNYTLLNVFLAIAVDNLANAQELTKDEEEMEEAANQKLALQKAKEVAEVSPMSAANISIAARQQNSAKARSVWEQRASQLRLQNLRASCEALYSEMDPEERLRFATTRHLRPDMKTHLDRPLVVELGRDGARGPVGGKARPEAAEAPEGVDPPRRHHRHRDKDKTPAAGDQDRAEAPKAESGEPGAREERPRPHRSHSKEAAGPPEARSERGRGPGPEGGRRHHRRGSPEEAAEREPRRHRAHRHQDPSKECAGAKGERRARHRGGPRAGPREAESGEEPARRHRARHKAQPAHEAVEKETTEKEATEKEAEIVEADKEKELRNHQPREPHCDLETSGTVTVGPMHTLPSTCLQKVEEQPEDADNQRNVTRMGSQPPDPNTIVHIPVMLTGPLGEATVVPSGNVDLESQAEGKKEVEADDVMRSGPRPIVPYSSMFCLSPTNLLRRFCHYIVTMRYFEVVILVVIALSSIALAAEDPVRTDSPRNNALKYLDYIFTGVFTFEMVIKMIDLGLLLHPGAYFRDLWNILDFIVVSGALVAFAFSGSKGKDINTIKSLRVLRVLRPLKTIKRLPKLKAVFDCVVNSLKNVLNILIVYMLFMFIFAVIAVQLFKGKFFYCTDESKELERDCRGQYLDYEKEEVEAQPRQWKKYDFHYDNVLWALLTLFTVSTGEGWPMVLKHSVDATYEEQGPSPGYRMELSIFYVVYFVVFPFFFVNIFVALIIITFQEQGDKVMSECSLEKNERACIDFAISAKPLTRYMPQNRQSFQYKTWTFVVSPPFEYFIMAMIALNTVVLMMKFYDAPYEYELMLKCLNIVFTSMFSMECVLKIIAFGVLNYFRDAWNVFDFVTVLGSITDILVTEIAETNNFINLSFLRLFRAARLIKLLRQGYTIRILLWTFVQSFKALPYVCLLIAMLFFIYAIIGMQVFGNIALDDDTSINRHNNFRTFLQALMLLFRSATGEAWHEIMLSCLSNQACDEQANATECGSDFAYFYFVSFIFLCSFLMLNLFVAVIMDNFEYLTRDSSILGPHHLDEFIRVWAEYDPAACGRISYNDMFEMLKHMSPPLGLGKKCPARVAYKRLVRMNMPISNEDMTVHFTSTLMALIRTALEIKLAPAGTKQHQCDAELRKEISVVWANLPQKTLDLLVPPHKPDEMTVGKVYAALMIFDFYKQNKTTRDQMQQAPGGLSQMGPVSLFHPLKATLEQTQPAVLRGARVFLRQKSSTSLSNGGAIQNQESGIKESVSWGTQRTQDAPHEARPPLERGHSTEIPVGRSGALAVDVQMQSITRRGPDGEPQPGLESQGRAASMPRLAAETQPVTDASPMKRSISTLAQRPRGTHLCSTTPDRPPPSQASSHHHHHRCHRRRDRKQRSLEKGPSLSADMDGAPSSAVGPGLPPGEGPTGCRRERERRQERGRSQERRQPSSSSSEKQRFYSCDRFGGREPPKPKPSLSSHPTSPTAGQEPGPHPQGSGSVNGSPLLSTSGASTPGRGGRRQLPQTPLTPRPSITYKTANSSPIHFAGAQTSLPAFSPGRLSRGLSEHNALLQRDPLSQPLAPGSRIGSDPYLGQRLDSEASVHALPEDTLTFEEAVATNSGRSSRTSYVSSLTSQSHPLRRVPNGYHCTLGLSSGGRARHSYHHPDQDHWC
# Sequence (P54289 25-946 partner limits assumed): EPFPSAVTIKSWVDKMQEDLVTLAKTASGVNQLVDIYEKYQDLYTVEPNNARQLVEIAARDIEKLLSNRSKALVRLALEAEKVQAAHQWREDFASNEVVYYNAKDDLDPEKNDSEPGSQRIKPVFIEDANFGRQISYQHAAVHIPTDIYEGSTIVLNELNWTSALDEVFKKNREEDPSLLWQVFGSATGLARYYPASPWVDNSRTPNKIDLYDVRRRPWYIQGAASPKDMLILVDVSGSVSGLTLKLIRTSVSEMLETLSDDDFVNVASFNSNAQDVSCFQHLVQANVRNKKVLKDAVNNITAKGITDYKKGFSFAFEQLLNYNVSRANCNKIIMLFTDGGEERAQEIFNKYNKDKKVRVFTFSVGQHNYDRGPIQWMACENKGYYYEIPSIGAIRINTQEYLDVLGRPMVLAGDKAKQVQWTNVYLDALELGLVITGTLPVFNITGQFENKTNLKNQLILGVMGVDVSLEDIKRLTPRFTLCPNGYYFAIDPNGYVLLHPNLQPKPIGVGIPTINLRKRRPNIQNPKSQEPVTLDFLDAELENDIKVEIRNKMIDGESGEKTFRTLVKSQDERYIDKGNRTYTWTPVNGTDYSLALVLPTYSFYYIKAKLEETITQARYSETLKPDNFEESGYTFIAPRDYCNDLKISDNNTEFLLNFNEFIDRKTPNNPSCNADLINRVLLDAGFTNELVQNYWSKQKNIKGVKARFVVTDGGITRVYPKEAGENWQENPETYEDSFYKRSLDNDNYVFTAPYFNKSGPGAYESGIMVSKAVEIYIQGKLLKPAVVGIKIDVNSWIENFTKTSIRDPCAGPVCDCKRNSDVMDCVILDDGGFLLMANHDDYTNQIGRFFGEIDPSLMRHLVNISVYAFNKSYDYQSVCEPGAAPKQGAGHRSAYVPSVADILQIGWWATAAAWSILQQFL
# Sequence (P54289 947-1103 partner limits assumed): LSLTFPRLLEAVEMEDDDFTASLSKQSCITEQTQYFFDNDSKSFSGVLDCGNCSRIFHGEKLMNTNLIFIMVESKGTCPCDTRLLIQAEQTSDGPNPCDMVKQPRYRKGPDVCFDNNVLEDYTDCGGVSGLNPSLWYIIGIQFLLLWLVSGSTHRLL
# Sequence (P54284 whole entry partner): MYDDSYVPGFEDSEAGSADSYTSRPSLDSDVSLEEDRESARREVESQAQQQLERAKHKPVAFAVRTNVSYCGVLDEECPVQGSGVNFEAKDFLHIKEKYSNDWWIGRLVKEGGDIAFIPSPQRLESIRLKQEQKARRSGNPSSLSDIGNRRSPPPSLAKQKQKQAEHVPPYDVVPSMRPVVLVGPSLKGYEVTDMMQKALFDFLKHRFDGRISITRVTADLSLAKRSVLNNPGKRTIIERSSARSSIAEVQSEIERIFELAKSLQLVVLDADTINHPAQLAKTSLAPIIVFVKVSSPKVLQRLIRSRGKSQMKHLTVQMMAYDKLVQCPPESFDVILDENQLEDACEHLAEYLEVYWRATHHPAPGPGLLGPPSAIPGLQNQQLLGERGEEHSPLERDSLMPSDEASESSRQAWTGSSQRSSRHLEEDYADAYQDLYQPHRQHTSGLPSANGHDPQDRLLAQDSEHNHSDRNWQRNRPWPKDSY
# testProtocol: Assessment of calcium channel activity using FLIPR (Ca2+ influx in IMR32 cells)
# Assay type: cell-based
# setupConditions: 60 minute pre-incubation with compound, 2 μM nifedipine, depolarized with 80 mM KCl
Measured IC50 of individual entries
measuredParameter: IC50 (nM)

O=C(N[C@H]1CC[C@H]2CN(CCC(c3ccc(F)cc3)c3ccc(F)cc3)C[C@H]21)C(C1CCCCC1)C1CCCCC1 [Example 65] :: 4500
CC[C@H](C)[C@H](NC)C(=O)N[C@H]1CC[C@@H]2CN(S(=O)(=O)c3ccc(C(F)(F)F)cc3)C[C@@H]21 [Example 411] :: 4220
CC(C)C[C@H](NS(=O)(=O)C1CCCC1)C(=O)N[C@@H]1CC[C@H]2CN(Cc3cccc(C(F)(F)F)c3)C[C@H]21 [Example 524] :: 2070
CCC[C@H](NC)C(=O)N[C@H]1CC[C@@H]2CN(S(=O)(=O)c3cccc(C#N)c3)C[C@@H]21 [Example 546] :: 6320
CC(C)C(C(=O)N[C@H]1CC[C@@H]2CN(CCCc3ccc(C(F)(F)F)cc3)C[C@@H]21)c1ccccc1 (stereo partly shown) [Example 115] :: 1200
CC(C)(C)OC(=O)N1CCCC[C@H]1C(=O)N[C@@H]1CC[C@H]2CN(S(=O)(=O)c3cccc(C(F)(F)F)c3)C[C@H]21 [Example 268] :: 730
CC(C)N[C@@H](CC(C)(C)C)C(=O)N[C@H]1CC[C@@H]2CN(S(=O)(=O)c3ccc(C(F)(F)F)cc3Cl)C[C@@H]21 [Example 487] :: 560
CCCC[C@H](NC)C(=O)N[C@H]1CC[C@@H]2CN(S(=O)(=O)c3ccc(C(F)(F)F)cc3)C[C@@H]21 [Example 418] :: 820
CCN(C(=O)OC(C)(C)C)[C@@H](CC(C)C)C(=O)N[C@H]1CC[C@@H]2CN(Cc3cccc(C(F)(F)F)c3)C[C@@H]21 [Example 310] :: 680
CC(C)(C)OC(=O)N1CCC[C@H]1C(=O)N[C@H]1CC[C@@H]2CN(S(=O)(=O)c3cccc(C(F)(F)F)c3)C[C@@H]21 [Example 271] :: 3410
CC(C)(C)C[C@H](NCC1CCCC1)C(=O)N[C@H]1CC[C@@H]2CN(S(=O)(=O)c3ccc(C(F)(F)F)cc3)C[C@@H]21 [Example 474] :: 1740
O=C(N[C@H]1CC[C@H]2CN(Cc3cccc(C(F)(F)F)c3)C[C@H]21)C1CCCCCC1 (relative stereo) [Example 128] :: 1000
CN([C@H]1CC[C@@H]2CN(S(=O)(=O)c3ccc(C(F)(F)F)cc3)C[C@@H]21)S(=O)(=O)c1ccccc1[N+](=O)[O-] [Example 300] :: 1540
